Values from the supplement of paper PMC10567573

Property: protein stability index; scope: individual variants
B1: USP39 (parent)
chain: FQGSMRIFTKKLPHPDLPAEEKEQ

# Variants of: B1
# Protocol Details: protein stability index of a GFP-peptide fusion (GPS, HEK-293T) (PSI 1-6); higher = more stable;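 further: lentivirally expressed fusions sorted by FACS into six bins by GFP to DsRed ratio, PSI derived from sequencing read proportions per bin multiplied by bin number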
# Measurement Context: c terminus: a fixed tail appended
# output: bare number, no unit

Look over these answered cases.
P13M 2.12
P13T 1.68

Consider the record given below.
Ask: Param item = Q2D ; retrieve measured protein stability index.
Reply: 4.49
